Tested on: pp28-luciferase Towne CMV
test.method.notes: microbe, parasite or virus in culture
Type: cell-based, human cytomegalovirus
measurement.parameters: 0.1 µM, 72 hpi
assay.metric: inhibition of late pp28 gene expression (luciferase activity)

These solved cases illustrate the format of a correct answer.
CC1CCC2C(C)C(CC(CSc3ccc(COC(=O)N(C)C)cc3)CC3OC4OC5(C)CCC6C(C)CCC(C3C)C46OO5)OC3OC4(C)CCC1C32OO4 (stereo not drawn); not active
CC1CCC2C(C)C(CC(CSc3cccc(COC(=O)N(C)C)c3)CC3OC4OC5(C)CCC6C(C)CCC(C3C)C46OO5)OC3OC4(C)CCC1C32OO4 (stereo not drawn); not active
CC1CCC2C(C)C(CC(COP(=O)(Oc3ccccc3)Oc3ccccc3)CC3OC4OC5(C)CCC6C(C)CCC(C3C)C46OO5)OC3OC4(C)CCC1C32OO4 (stereo not drawn); highly inhibitory
CC1CCC2C(C)C(CC(CC3OC4OC5(C)CCC6C(C)CCC(C3C)C46OO5)CS(=O)(=O)c3cccc(COC(=O)N(C)C)c3)OC3OC4(C)CCC1C32OO4 (stereo not drawn); not active

Continue with the next compound.
Task item: Recorded inhibition of late pp28 gene expression (luciferase activity) for CC1CCC2C(C)C(CC(CC3OC4OC5(C)CCC6C(C)CCC(C3C)C46OO5)CS(=O)(=O)c3ccc(COC(=O)N(C)C)cc3)OC3OC4(C)CCC1C32OO4 (stereo not drawn) , please?
Reply: highly inhibitory

====

Test system: HFF
test.method.notes: CellTiter-Glo Luminescent Cell Viability assay in HFF
Type: cell-based
assay.metric: CC50 (µM)
Provide only the numeric value, understood in µM.

Task item: Provide value of CC50 for this record tested with HFF: C[C@H]1[C@@H](CCC(=O)Nc2ccc(F)cc2)O[C@@H]2OC3(C)CC[C@H]4[C@H](C)CC[C@@H]1[C@@]24OO3 [Artefanilide]
Reply: 44.9

====

Test system: HCT116 (colorectal carcinoma)
test.method.notes: MTT cancer cell growth assay, HCT116
Assay type: cell-based, human
measurement.parameters: Homo sapiens, HCT-116; MTT 72 hr after treatment; read-out: CC50 HCT116
assay.metric: CC50 (nM)
Provide only the numeric value, understood in nM.

CC1CCC2C(C)C(CC(CO)CC3OC4OC5(C)CCC6C(C)CCC(C3C)C46OO5)OC3OC4(C)CCC1C32OO4 (centres unmarked); 100
C[C@H]1[C@H](OC(=O)CCC(=O)O)O[C@@H]2O[C@@]3(C)CC[C@H]4[C@H](C)CC[C@@H]1[C@@]24OO3 [artesunate, Artesunate, reference compound]; 11300
CC1CCC2C(C)C(CC(CC3OC4OC5(C)CCC6C(C)CCC(C3C)C46OO5)CS(=O)(=O)c3ccc(CO)cc3)OC3OC4(C)CCC1C32OO4 (centres unmarked); 70

Task item: Recorded CC50 for CC1CCC2C(C)C(CC(CC3OC4OC5(C)CCC6C(C)CCC(C3C)C46OO5)CS(=O)(=O)c3ccc(COC(=O)N(C)C)cc3)OC3OC4(C)CCC1C32OO4 (centres unmarked) , please?
Reply: 70

====

Property: CC50 at 72 h; scope: individual compounds
test.method.notes: CellTiter-Glo Luminescent Cell Viability assay in HFF
Format: cell-based
measurement.parameters: human
Provide only the numeric value, understood in µM.

These solved cases illustrate the format of a correct answer.
CC1CCC2C(C)C(CC(CC3OC4OC5(C)CCC6C(C)CCC(C3C)C46OO5)CS(=O)(=O)c3ccc(CO)cc3)OC3OC4(C)CCC1C32OO4 (stereo not drawn); 4.9
CC1CCC2C(C)C(CC(CO)CC3OC4OC5(C)CCC6C(C)CCC(C3C)C46OO5)OC3OC4(C)CCC1C32OO4 (stereo not drawn); 48.1

Task item: Recorded CC50 at 72 h for CC1CCC2C(C)C(CC(CC3OC4OC5(C)CCC6C(C)CCC(C3C)C46OO5)CS(=O)(=O)c3ccc(COC(=O)N(C)C)cc3)OC3OC4(C)CCC1C32OO4 (stereo not drawn) , please?
Reply: 57.5
